Assay Info: High-throughput drug toxicity screening in the BPDCN cell line Cal-1 (AID 1224825);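 note: cells exposed to compounds for 48 h; 100% = DMSO and 0% = bortezomib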
Applied Conditions: Cal-1 BPDCN cell viability, qHTS; at 45.8 µM (top of the series) unless noted
Collected viability (% of control) values appear next to each entry.
Give the value in % but do not write % after it.

A selection of reference data follows.
{"columns": ["Molecule", "viability (% of control), %"],
 "data": [
  ["CC(C)(C)c1nc(-c2cccc(NS(=O)(=O)c3c(F)cccc3F)c2F)c(-c2ccnc(N)n2)s1", 55.4],
  ["CN(C)CCOc1cc(-c2cn[nH]c2)ccc1NC(=O)C1COc2ccccc2O1 (stereo not drawn)", 34.9],
  ["CC(C)(O)CC(=O)NCCn1ccc2ncnc(Nc3ccc(Oc4cccc(C(F)(F)F)c4)c(Cl)c3)c21", 61.4],
  ["O=C(O)CCC=CCC[C@@H]1[C@H](N2CCCCC2)[C@@H](O)C[C@@H]1OCc1ccc(-c2ccccc2)cc1", 63],
  ["CC1=C(CC(=O)O)c2cc(F)ccc2C1=Cc1ccc(S(C)=O)cc1 (stereo not drawn)", 7.86],
  ["CCCCn1c(=O)n(Cc2ccccc2F)c(=O)c2[nH]c(Cc3ccc(NC(C)=O)cc3)nc21", 86],
  ["C[C@@H]1CC=CC=CC=CC=C[C@@H](O[C@@H]2O[C@H](C)[C@@H](O)[C@H](N)[C@H]2O)C[C@@H]2O[C@](O)(C[C@@H](O)C[C@@H]3O[C@@H]3C=CC(=O)O1)C[C@H](O)[C@@H]2C(=O)O", 110],
  ["COC(=O)Nc1ccc(-c2nc(N3CCOCC3)c3cnn(C4CCN(C(=O)OC)CC4)c3n2)cc1", 4.85],
  ["OCCn1cc(-c2ccc3c(c2)CCC3=NO)c(-c2ccncc2)n1", 76.4],
  ["COc1cc(CNC(=O)CCCCC=CC(C)C)ccc1O", 27.5]
]}

Using the record for C[C@@H]1C[C@H]2[C@@H]3CCC4=CC(=O)C=C[C@]4(C)[C@@]3(F)[C@@H](O)C[C@]2(C)[C@@]1(O)C(=O)CO , report its viability (% of control).
55.5
